System: Caco-2
Test: cell viability relative to DMSO; higher = less toxic
Conditions: 72 h; 100 nM
I'd appreciate it if you could supply cell viability values for the items below.
Give your result as the value with the unit written after it.

Request: cell viability, test system Caco-2, entry CN(C)CCC(c1ccc(Br)cc1)c1ccccn1 (centres undefined) [brompheniramine]
96.6%

Try this compound next: CCN(C)C(=O)Oc1cccc([C@H](C)N(C)C)c1 [rivastigmine]
104%

Item: CC[C@@]1(O)C(=O)OCc2c1cc1n(c2=O)Cc2c-1nc1cc(F)c(C)c3c1c2[C@@H](N)CC3 [exatecan-mesylate]
32.7%

// next record O[C@H]1CC[C@H](Nc2nc(-c3ccccc3)nc3[nH]ccc23)CC1 [SLV-320]
102%

Follow-up entry: Cn1ncc(Cl)c1-c1cc(C(=O)N[C@H](CN)Cc2ccc(F)c(F)c2)oc1Cl [uprosertib]
86.2%

Would you mind doing O=C(OCCOCCO)c1ccccc1Nc1cccc(C(F)(F)F)c1 [etofenamate] as well?
92.4%

Quick one: CCCC(=O)Nc1ccc(OCC(O)CNC(C)C)c(C(C)=O)c1 (centres undefined) [acebutolol]
93%

What do you have for COc1ccc2[nH]c(I)c(CCNC(C)=O)c2c1 [2-iodomelatonin] ?
94.6%

Please answer likewise for C[C@@H](O)[C@H](N)C(=O)N1CCC[C@H]1C(=O)N1CCC[C@H]1C(=O)N[C@H](C(N)=O)[C@@H](C)O [rapastinel]
97.6%

----------
Tested on: Caco-2
Assay: cell viability relative to DMSO; higher = less toxic
Conditions: 72 h; 1000 nM
We label by threshold. Values of cell viability strictly beneath 90% are satisfied. Values of 90% and up are not satisfied.

Strictly below 90% in cell viability? COc1cccc(C(=O)CCN[C@@H](C)[C@H](O)c2ccccc2)c1
not satisfied

Param item: NCCCNCCCCNCCCN
not satisfied

O=C(O)COc1ccc(OCCNC[C@H](O)COc2ccccc2)cc1 , same question.
not satisfied

How about CCCCc1nc(Cl)c(C(=O)O)n1Cc1ccc(-c2ccccc2-c2nn[nH]n2)cc1 ?
not satisfied

Next compound: O=C1NC(=O)[C@@H](c2cn3c4c(cccc24)CCC3)[C@@H]1c1c[nH]c2ccccc12 [tivantinib]
satisfied

Another compound: CCN(C)C(=O)Oc1cccc([C@H](C)N(C)C)c1
not satisfied

Try the compound CC[C@H](CO)Nc1nc(Nc2cccc(-c3ccccn3)c2)c2ncn(C(C)C)c2n1 [DRF053-(R)]
not satisfied

// same read-out, input: CNC(=O)Nc1ccc(-c2nc(N3CC4CCC(C3)O4)c3cnn(C4CCC5(CC4)OCCO5)c3n2)cc1
satisfied

Consider next the compound CC(=O)NNC(=O)N1Cc2ccccc2Oc2ccc(Cl)cc21 in the same way.
not satisfied

How about NC1(Cc2ccc(Cl)cc2)CCN(c2ncnc3[nH]ccc23)CC1 ?
not satisfied

Can you handle Cc1cc([N+](=O)[O-])ccc1NS(=O)(=O)c1cc(Cl)ccc1Cl next?
satisfied

Entry to check: Cc1oc(=O)oc1COC(=O)C1=C([C@H]2CCCO2)S[C@@H]2[C@@H]([C@@H](C)O)C(=O)N12
not satisfied

Okay, and Cc1cccc(OCC(O)CNC(C)(C)C)c1C (stereo not given) ?
not satisfied

----------
So I've got a bunch of compounds here, and I need their cell viability values.
Tested on: HepG2
Assay: cell viability relative to DMSO; higher = less toxic
Details: 72 h; 1 nM
State the answer as a number, implicitly in %.

Endpoint output: cell viability of Cc1cccc(Oc2nc3c(C)cccn3c(=O)c2/C=C(\C#N)c2nc3ccccc3s2)c1 . Value?
100

Then C[C@]12CC[C@@H]3c4ccc(O)cc4CC[C@H]3[C@@H]1CC[C@@H]2OC(=O)CCC1CCCC1 [estradiol-cypionate] ?
103

Then O=C(c1ccccc1)c1ccc2n1CCC2C(=O)O (centres undefined) [ketorolac] ?
102

Proceed to OCCNCCCOc1cccc(Cl)c1Cl [2,3-DCPE]
103

# repeat for CC/C(=C(/CC)c1ccc(OP(=O)(O)O)cc1)c1ccc(OP(=O)(O)O)cc1 [fosfestrol]
102

Now try CC(=O)N(CC(C)C(=O)O)c1c(I)cc(I)c(N)c1I (centres undefined) [iocetamic-acid] .
93

// same read-out, input: O=C(O)c1ccc(N[C@@H]2O[C@H](CO)[C@@H](O)[C@H](O)[C@@H]2O)cc1 [K-MAP]
90.8

Query CCCC(CCC)C(=O)O[C@H]1C[C@H]2CC[C@@H](C1)[N+]2(C)C [anisotropine] next
102

// repeat for COc1ccc(Br)cc1S(=O)(=O)NC(=O)/C=C/c1ccccc1Cc1ccc2ccccc2c1 and report
96.4
